Biological target: Dickkopf-related protein 1 (Homo sapiens)
Assay: DKK1 binders on small-molecule microarrays, primary screen, biochemical, small-molecule microarray, 635 nm fluorescence scan (AID 1106);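 further: score merges emission near 667 nm with signal to noise over three replicate slides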
Details: DKK1 binding, higher = more signal
Listing of recorded composite z-score by entry.

{"compound": "C[C@@H]1CC[C@H]2C(=O)N3CCC[C@H]3C(=O)N2[C@H]1c1ccc(Br)cc1", "composite z-score": 0.526}
{"compound": "C=CC[C@]1(C(=O)NCC(O)CO)N=C(c2ccc(OCCCO)cc2)O[C@H]1c1ccccc1 (some centres undefined)", "composite z-score": -0.296}
{"compound": "COC(=O)C[C@H]1O[C@]2(C(=O)N(C)c3ccccc32)[C@@H](C)[C@@H]1[Si](C)(C)c1ccc(OC)cc1", "composite z-score": 0.344}
{"compound": "COc1cc(Cc2cc3c(c(CCc4ccccc4)n2)[Si](C(C)C)(C(C)C)OC3)cc(OC)c1OC", "composite z-score": 0.164}
